Assay: in vitro
Conditions: human, microsomes
experimentalEndpoint: CLint scaled at 3 h, 100 µM (mL/min/kg)
Answers are plain numbers, in mL/min/kg.

- molecule: "COc1ccc(N(C)C(=O)[C@H](Cc2cc(F)cc(F)c2)NC(=O)CN2CC(=O)N(CC(=O)N[C@@H](Cc3cc(F)cc(F)c3)C(=O)N(C)c3ccc(OC)cc3)CC2=O)cc1"
  CLint scaled at 3 h, 100 µM [mL/min/kg]: 760

Now for the molecule whose CLint scaled at 3 h, 100 µM we want.
## Task Value lookup for CLint scaled at 3 h, 100 µM; key = COc1ccc(N(C)C(=O)[C@H](Cc2ccccc2)NC(=O)CN2CCN(S(=O)(=O)c3ccc(N)cc3)CC2=O)cc1 [Compound 11l, reference compound]
## Result 356
